# System: histone modifications in 2102EP cells
# experiment.description: Mass spectrometry analysis of histone modifications (Mod Spec)
# Assay type: cell-based, Human
# assay.context: 2102EP cells; Mod Spec raw data
assay.readout: H3.3: K27UN, % of peptide pool (%)

query.smiles	assay.readout	number
Cn1cc(CNCC2CCN(c3ncc(C(=O)NO)cn3)CC2)c2ccccc21	H3.3: K27UN, % of peptide pool	24.1102
Cc1ncsc1-c1ccc(CNC(=O)[C@@H]2C[C@@H](O)CN2C(=O)[C@@H](NC(=O)COCCOCCOCCNC(=O)C[C@@H]2N=C(c3ccc(Cl)cc3)c3c(sc(C)c3C)-n3c(C)nnc32)C(C)(C)C)cc1	H3.3: K27UN, % of peptide pool	26.8119
CCCc1cc(C)[nH]c(=O)c1CNC(=O)c1cc(-c2ccnc(N3CCN(C)CC3)c2)cc2c1cnn2C(C)C	H3.3: K27UN, % of peptide pool	31.6757
Cc1cc(=O)n(C)c2cc(N3C(=O)CC[C@H](NS(=O)(=O)CC(C)C)[C@H]3c3ccc(Cl)cc3)ccc12	H3.3: K27UN, % of peptide pool	27.2241
CN1C(=O)[C@@]23C[C@]4([C@]56C[C@@]78SS[C@@](CO)(C(=O)N7[C@H]5Nc5ccccc56)N(C)C8=O)c5ccccc5N[C@@H]4N2C(=O)[C@]1(CO)SS3	H3.3: K27UN, % of peptide pool	28.0564
Clc1ccc(N/N=C(\c2ccccc2)c2ccccn2)nc1	H3.3: K27UN, % of peptide pool	28.488
O=C1C(=Cc2cccnc2)C(=O)c2ccccc21	H3.3: K27UN, % of peptide pool	24.4778
